Quick record: GI50, SR leukemia.

Bench note: what GI50 did `CCOC(=O)c1c(-c2ccccc2)[n+](=O)c2ccc(Cl)cc2n1[O-]` show? 2590 nM

Repeat for the following molecule: `Cc1ccc(S(=O)(=O)/N=c2\ssc(Nc3ccccc3)c2Cl)cc1` 9060 nM

Repeat for the following molecule: `O=C(Nc1nccs1)c1cc2c(cc1Cl)Sc1nccn1S2(=O)=O` 3000 nM

Repeat for the following molecule: `O=C(Nc1ccccc1)Nc1cccc(-n2cc(-c3ccncc3)c(-c3ccc(O)c(Cl)c3)n2)c1` 2350 nM

Repeat for the following molecule: `CCOC(=O)c1c(C)nc2ccc(Cl)cc2c1-c1ccccc1` 18400 nM

Repeat for the following molecule: `ClCc1ccc(-c2ccc(Cn3cnc4c(Cl)nc(Cl)nc43)cc2)cc1` 1900 nM

Repeat for the following molecule: `COc1ccc(-c2cnc3ccnn3c2-c2cc(OC)c(OC)c(OC)c2)cc1` 1660 nM

Repeat for the following molecule: COC(=O)C(C)NP(=O)(OCc1ccc(Cn2cnc3c(=O)[nH]c(N)nc32)cc1)Oc1ccccc1 (stereo unspecified) > 100000 nM

Repeat for the following molecule: O=C(O)C1NCCc2c1[nH]c1ccccc21 (stereo unspecified) > 100000 nM

Repeat for the following molecule: `CCOC(=O)/C(=C/c1ccc([N+](=O)[O-])cc1)C(=O)c1ccccc1` 2850 nM

Repeat for the following molecule: `CCOC(=O)c1ccc(N(CCOS(C)(=O)=O)CCOS(C)(=O)=O)cc1C` 2830 nM
